The reader will find reported IC50 values listed item by item below.
# tested_system: C-X-C chemokine receptor type 2 (Homo sapiens, UniProt P25025)
# Sequence (P25025 whole entry): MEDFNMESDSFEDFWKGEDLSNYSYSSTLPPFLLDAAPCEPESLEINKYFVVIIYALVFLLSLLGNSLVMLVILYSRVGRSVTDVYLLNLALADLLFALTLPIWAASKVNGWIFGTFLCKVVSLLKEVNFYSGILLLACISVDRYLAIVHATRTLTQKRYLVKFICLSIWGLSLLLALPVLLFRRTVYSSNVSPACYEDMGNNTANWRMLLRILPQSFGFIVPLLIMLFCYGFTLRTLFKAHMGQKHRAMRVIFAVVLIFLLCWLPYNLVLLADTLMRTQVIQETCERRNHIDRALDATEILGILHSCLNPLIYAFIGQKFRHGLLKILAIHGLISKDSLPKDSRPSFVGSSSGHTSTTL
# test_details: Displacement of [125I]hCXCL8 from human CXCR2 receptor expressed in BaF3 cells

smiles: Cc1ccc([C@@H](C)Nc2c(Nc3cccc(C(=O)N(C)C)c3O)c(=O)c2=O)o1
tested_system: C-X-C chemokine receptor type 2 (Homo sapiens, UniProt P25025)
IC50, nM: 5.4

smiles: CC[C@@H](Nc1c(Nc2cccc(C(=O)N(C)C)c2O)c(=O)c1=O)c1ccc2c(c1)OCO2
tested_system: C-X-C chemokine receptor type 2 (Homo sapiens, UniProt P25025)
IC50, nM: 5

smiles: CC[C@H](Nc1c(Nc2cccc(C(=O)N(C)C)c2O)c(=O)c1=O)c1ccccc1
tested_system: C-X-C chemokine receptor type 2 (Homo sapiens, UniProt P25025)
IC50, nM: 234

smiles: CN(C)C(=O)c1cccc(Nc2c(NCc3ccccc3)c(=O)c2=O)c1O
tested_system: C-X-C chemokine receptor type 2 (Homo sapiens, UniProt P25025)
IC50, nM: 236

smiles: CC[C@@H](Nc1c(Nc2cccc(C(=O)N(C)C)c2O)c(=O)c1=O)c1cccc(F)c1
tested_system: C-X-C chemokine receptor type 2 (Homo sapiens, UniProt P25025)
IC50, nM: 4.9

smiles: Cc1ccc([C@H](Nc2c(Nc3cccc(C(=O)N(C)C)c3O)c(=O)c2=O)C(C)(C)C)o1
tested_system: C-X-C chemokine receptor type 2 (Homo sapiens, UniProt P25025)
IC50, nM: 3.8

smiles: Cc1ccc([C@H](Nc2c(Nc3cccc(C(=O)N(C)C)c3O)c(=O)c2=O)C2CC2)o1
tested_system: C-X-C chemokine receptor type 2 (Homo sapiens, UniProt P25025)
IC50, nM: 3.6

smiles: CC[C@@H](Nc1c(Nc2cccc(C(=O)N(C)C)c2O)c(=O)c1=O)c1ccc(C)s1
tested_system: C-X-C chemokine receptor type 2 (Homo sapiens, UniProt P25025)
IC50, nM: 5.3

smiles: Cc1ccc([C@H](Nc2c(Nc3cccc(C(=O)N(C)C)c3O)c(=O)c2=O)C(C)C)o1
tested_system: C-X-C chemokine receptor type 2 (Homo sapiens, UniProt P25025)
IC50, nM: 6.2

smiles: CC[C@@H](Nc1c(Nc2cccc(C(=O)N(C)C)c2O)c(=O)c1=O)c1ccco1
tested_system: C-X-C chemokine receptor type 2 (Homo sapiens, UniProt P25025)
IC50, nM: 3.8

smiles: CC[C@@H](Nc1c(Nc2cccc(C(=O)N(C)C)c2O)c(=O)c1=O)c1ccccc1
tested_system: C-X-C chemokine receptor type 2 (Homo sapiens, UniProt P25025)
IC50, nM: 6.8

smiles: CC[C@@H](Nc1c(Nc2cccc(C(=O)N(C)C)c2O)c(=O)c1=O)c1cccs1
tested_system: C-X-C chemokine receptor type 2 (Homo sapiens, UniProt P25025)
IC50, nM: 6

---

# test_details: AUC (0-6h) in rat at 10 mg/kg, po
# Format: ADME, organism-based
# Parameters: time < 6 hr, dose 10 mg/kg, route oral
# conditions: plasma
Outcome: Y for AUC(0-t) at 6 h of at least 20 µM·h; N for anything lower.

compound: CC[C@@H](Nc1c(Nc2cccc(C(=O)N(C)C)c2O)c(=O)c1=O)c1ccc2c(c1)OCO2
assigned_class: Y

compound: CC[C@@H](Nc1c(Nc2cccc(C(=O)N(C)C)c2O)c(=O)c1=O)c1ccc(C)o1 [NAVARIXIN ANHYDROUS]
assigned_class: Y

compound: CC[C@@H](Nc1c(Nc2cccc(C(=O)N(C)C)c2O)c(=O)c1=O)c1ccco1
assigned_class: N

compound: CCC(CC)Nc1c(Nc2cccc(C(=O)N(C)C)c2O)c(=O)c1=O
assigned_class: N

compound: Cc1ccc([C@H](Nc2c(Nc3cccc(C(=O)N(C)C)c3O)c(=O)c2=O)C(C)(C)C)o1
assigned_class: N

compound: Cc1ccc([C@H](Nc2c(Nc3cccc(C(=O)N(C)C)c3O)c(=O)c2=O)C2CC2)o1
assigned_class: N

compound: CC[C@H](Nc1c(Nc2cccc(C(=O)N(C)C)c2O)c(=O)c1=O)c1ccccc1
assigned_class: N

compound: CC[C@@H](Nc1c(Nc2cccc(C(=O)N(C)C)c2O)c(=O)c1=O)c1ccc(C)s1
assigned_class: N

compound: Cc1ccc([C@H](Nc2c(Nc3cccc(C(=O)N(C)C)c3O)c(=O)c2=O)C(C)C)o1
assigned_class: N

compound: CC[C@@H](Nc1c(Nc2cccc(C(=O)N(C)C)c2O)c(=O)c1=O)c1cccc(F)c1
assigned_class: N

compound: Cc1ccc([C@@H](C)Nc2c(Nc3cccc(C(=O)N(C)C)c3O)c(=O)c2=O)o1
assigned_class: Y

compound: CC[C@@H](Nc1c(Nc2cccc(C(=O)N(C)C)c2O)c(=O)c1=O)c1ccccc1
assigned_class: N

compound: CC[C@@H](Nc1c(Nc2cccc(C(=O)N(C)C)c2O)c(=O)c1=O)c1cccs1
assigned_class: N
